Provide the reported growth of each item.
# Test system: MDA-MB-435 melanoma
# test.description: NCI-60 one-dose screen, 48 h (100 = growth as untreated, 0 = no growth, -100 = all killed)
# measurement.context: 10 µM unless noted
About 83,000 compounds went through this panel and 20% of them were active in at least one assay; those are over-represented in the sample as a whole.
Give bare numbers, in %.

Examples with their reported growth follow.
C#CCC1(c2ccc(F)c(F)c2)NS(=O)(=O)c2ccccc21 (stereo not given)
107
Clc1ccc(/C=C/c2nc(N3CCOCC3)c3nc(Cl)c(Cl)cc3n2)cc1
98.1
CC(C)(C)OC(=O)N[C@@H](Cc1ccccc1)C(=O)N(Cc1ccccc1)C1(C(=O)NCc2ccccc2)CCN(Cc2ccccc2)CC1
41
Cc1cc(Cl)ccc1OC(C)C(=O)Nc1nnc(C2CC2)s1 (stereo not given)
102
COc1cc(NCCCN=C(N)NC(N)=NC(C)C)c2ncccc2c1
96.9
COc1cccc(-n2cc(-c3nc(Cl)c4ccccc4n3)nn2)c1
97.3
O=C1CCCCN1CCCCC#Cc1ccccc1C#Cc1ccccn1
98.1
CN=S(=O)(NC(=O)c1ccc(Cl)cc1Cl)c1ccc(Br)s1 (stereo not given)
97.6

Kindly give each listed record's growth.
1. N#CC1=C(N)n2nc(-c3ccncc3)nc2NC1c1cccc2ccccc12 (stereo not given)
2. COc1ccc(-c2nnc(COc3ccc(NC(=O)Nc4ccc(Cl)c(C(F)(F)F)c4)cc3F)o2)cc1

Result string:
1. 88.1
2. 4.03

###

# System: HT29 colon
# test.description: NCI-60 one-dose screen, 48 h (100 = growth as untreated, 0 = no growth, -100 = all killed)
# measurement.context: 10 µM unless noted
The panel holds about 83,000 compounds, 20% with a hit somewhere; the sample as a whole holds those more often.
Provide the reported growth of each item.
Answers are plain numbers, in %.

Examples with their reported growth follow.
COc1ccc(C2=CC(c3ccc(Oc4ccnc5cc(Cl)ccc45)c(OC)c3)c3c(nc(OC)[nH]c3=O)N2)cc1 (stereo not drawn)
50.5
CNC(=O)Cc1nc(-c2cccc(NS(=O)(=O)c3c(F)cccc3F)c2F)c(-c2ccnc(Nc3ccccc3)n2)s1
6.8
CCOC(=O)CC/C(C)=N\Nc1ccc([N+](=O)[O-])cc1
52.9
COc1ccc(NC(=O)CSc2nc3ccc(Cl)cc3c(=O)n2-c2ccccc2C(F)(F)F)c(OC)c1OC
97.3
Nc1c(C(=O)Nc2cccc([N+](=O)[O-])c2)sc2nc3c(cc12)C(O)CCC3 (stereo not drawn)
17.4
CCCCCCC[C@@H](O)CC(=O)N[C@H](CCCCN)C(=O)N[C@H](Cc1c[nH]c2ccccc12)C(=O)NC(CCCCN)C(=O)N[C@H](CC(C)C)C(=O)N[C@H](Cc1ccccc1)C(=O)N[C@H](CCCCN)C(=O)N[C@H](CCCCN)C(=O)N[C@H](CC(C)C)C(=O)N1CCCC1C(=O)N[C@H](CCCCN)C(=O)N[C@H](Cc1ccccc1)C(=O)N[C@H](CC(C)C)C(=O)N[C@H](Cc1c[nH]cn1)C(=O)N[C@H](CC(C)C)C(=O)N[C@H](C)C(=O)N[C@H](CCCCN)C(=O)N[C@H](CCCCN)C(=O)N[C@H](Cc1ccccc1)C(=O)O (stereo partly drawn)
-52.7
C=CCOc1ccc(/C(O)=C2\C(=O)C(=O)N(c3nccs3)C2c2ccccc2F)cc1 (stereo not drawn)
108
COc1cc(Cn2c(-c3nonc3N)nc3ccccc32)ccc1C
0.109

Kindly give each listed record's growth.
1. COc1cc2oc(-c3cccc(NC(=O)Nc4ccc5c(c4)OCO5)c3)cc(=O)c2c(OC)c1OC
2. Cn1c(=O)c2c(nc3n2CCN(CCc2ccc(OCCN4CCOCC4)cc2)C3)n(C)c1=O

Result string:
1. 48.2
2. 107

FYI, the data here is from PubChem BioAssay (NCI).
